The origin of these recorded values is patent US10155021B2.

- Tested on: A. baumannii A387
- Assay procedure: Preliminary MBC without and with sub-inhibitory polymyxin B (Example 4)
- Type: cell-based, Acinetobacter baumannii
- Condition parameters: Acinetobacter baumannii, A387, A. baumannii A387, without polymyxin B, 2nd experiment, read-out: MBC without PB
Measure: MBC (µg/mL)
Give your result in µg/mL as a bare value.

Look over these answered cases.
compound="C[C@@H](O)[C@H]1C(=O)N2C(C(=O)O)=C(S[C@@H]3CN[C@H](C(=O)N(C)C)C3)[C@H](C)[C@H]12 [Meropenem, reference compound]" tested_target="A. baumannii A387" unit_tag=µg/mL recorded_measurement=8
compound="Cc1c(-c2cc(F)c(N)cc2F)ccn2c(=O)c(C(=O)O)cc(C3CC3)c12 [Compound 2]" tested_target="A. baumannii A387" unit_tag=µg/mL recorded_measurement=1
compound="Cc1c(-c2ccc(N)c(F)c2)ccn2c(=O)c(C(=O)O)cc(C3CC3)c12 [Compound 1]" tested_target="A. baumannii A387" unit_tag=µg/mL recorded_measurement=4
compound="Cc1c(-c2cc(Cl)c(N)c(Cl)c2)ccn2c(=O)c(C(=O)O)cc(C3CC3)c12 [Compound 3]" tested_target="A. baumannii A387" unit_tag=µg/mL recorded_measurement=4

Req: Quick one: MBC of C[C@@H](O)[C@H]1C(=O)N2C(C(=O)O)=C(SCCN=CN)C[C@H]12 [Imipenem, reference compound] ?
Resp: 16

* * *

Consider the following compounds and their measured MIC readings.
- Test system: A. baumannii ATCC 19606
- Assay procedure: MIC determination for Acinetobacter strains (Example 3)
- Format: cell-based
- Condition parameters: ATCC19606, reference strain
Just the number please, in µg/mL, no unit attached.

Check out these entries, answers already filled in.
compound=Cc1c(-c2ccc(N)cc2)ccn2c(=O)c(C(=O)O)cc(C3CC3)c12 recorded_measurement=1
compound="C[C@@H](O)[C@H]1C(=O)N2C(C(=O)O)=C(SCCN=CN)C[C@H]12 [Imipenem, reference compound]" recorded_measurement=2
compound="COc1c(N2C[C@@H]3CCCN[C@@H]3C2)c(F)cc2c(=O)c(C(=O)O)cn(C3CC3)c12 [Moxifloxacin, reference compound]" recorded_measurement=0.5
compound=Cc1c(-c2ccc(N)c(F)c2)ccn2c(=O)c(C(=O)O)cc(C3CC3)c12 recorded_measurement=0.25

Req: Consider the compound C[C@H]1COc2c(N3CCN(C)CC3)c(F)cc3c(=O)c(C(=O)O)cn1c23 [Levofloxacin, reference compound] and give its measured MIC.
Resp: 1

* * *

- System: A. baumannii A472
- Assay procedure: MIC determination for Acinetobacter strains (Example 3)
- Type: cell-based
- Condition parameters: LEV R, CIP R, MRP I, IMP I, AMK R, TET R
// reported MIC per item
In your response, put the unit directly after the numeric value.

compound="COc1c(N2C[C@@H]3CCCN[C@@H]3C2)c(F)cc2c(=O)c(C(=O)O)cn(C3CC3)c12 [Moxifloxacin, reference compound]" measure=MIC recorded_measurement="16 µg/mL"
compound=Cc1c(-c2cc(Cl)c(N)c(Cl)c2)ccn2c(=O)c(C(=O)O)cc(C3CC3)c12 measure=MIC recorded_measurement="32 µg/mL"
compound=Cc1c(-c2ccc(N)cc2)c(F)cn2c(=O)c(C(=O)O)cc(C3CC3)c12 measure=MIC recorded_measurement="4 µg/mL"
compound=Cc1c(-c2cc(F)c(N)cc2F)ccn2c(=O)c(C(=O)O)cc(C3CC3)c12 measure=MIC recorded_measurement="4 µg/mL"
compound=Cc1c(-c2ccc(CN)cc2)ccn2c(=O)c(C(=O)O)cc(C3CC3)c12 measure=MIC recorded_measurement="8 µg/mL"
compound="C[C@@H](O)[C@H]1C(=O)N2C(C(=O)O)=C(SCCN=CN)C[C@H]12 [Imipenem, reference compound]" measure=MIC recorded_measurement="16 µg/mL"
compound=Cc1c(-c2ccc(N)cc2)ccn2c(=O)c(C(=O)O)cc(C3CC3)c12 measure=MIC recorded_measurement="4 µg/mL"
compound=Cc1c(-c2ccc(N)c(F)c2)ccn2c(=O)c(C(=O)O)cc(C3CC3)c12 measure=MIC recorded_measurement="8 µg/mL"

Now look at this entry.
Req: Requested field: MIC. Item: C[C@@H](O)[C@H]1C(=O)N2C(C(=O)O)=C(S[C@@H]3CN[C@H](C(=O)N(C)C)C3)[C@H](C)[C@H]12 [Meropenem, reference compound]
Resp: 8 µg/mL

* * *

- Tested on: P. aeruginosa ATCC 27853
- Assay procedure: MIC, selected panel of Gram-positive and Gram-negative strains (Example 5)
- Type: cell-based
- Condition parameters: Pseudomonas aeruginosa, ATCC27853; read-out: MIC P. aeruginosa ATCC 27853
Measure: MIC

Here's what some known entries look like.
compound=Cc1c(-c2ccc(CN)c(F)c2)ccn2c(=O)c(C(=O)O)cc(C3CC3)c12 tested_target="P. aeruginosa ATCC 27853" recorded_measurement="1 µg/mL"
compound=Cc1c(-c2cnc(N)nc2)ccn2c(=O)c(C(=O)O)cc(C3CC3)c12 tested_target="P. aeruginosa ATCC 27853" recorded_measurement="> 8 µg/mL"
compound="C[C@H]1COc2c(N3CCN(C)CC3)c(F)cc3c(=O)c(C(=O)O)cn1c23 [Levofloxacin, reference compound]" tested_target="P. aeruginosa ATCC 27853" recorded_measurement="1 µg/mL"
compound="Cc1c(-c2ccc3c(c2)NC(=O)C(N)C3)ccn2c(=O)c(C(=O)O)cc(C3CC3)c12 (stereo not drawn)" tested_target="P. aeruginosa ATCC 27853" recorded_measurement="> 8 µg/mL"
compound="C[C@H]1c2cccc(O)c2C(=O)C2=C(O)[C@]3(O)C(=O)C(C(N)=O)=C(O)[C@@H](N(C)C)[C@@H]3[C@@H](O)[C@@H]21 [Doxycycline, reference compound]" tested_target="P. aeruginosa ATCC 27853" recorded_measurement="> 8 µg/mL"

Req: What measured MIC goes with "Cc1c(-c2ccc(C(=O)C(F)(F)F)cc2)ccn2c(=O)c(C(=O)O)cc(C3CC3)c12" ?
Resp: > 8 µg/mL

* * *

- Test system: A. baumannii A472
- Assay procedure: MIC without and with sub-inhibitory polymyxin B (Example 4)
- Assay type: cell-based, Acinetobacter baumannii
- Condition parameters: Acinetobacter baumannii, A472, A. baumannii A472; without polymyxin B; 1st experiment; read-out: MIC without PB
Measure: MIC (µg/mL)
Respond with the bare value in µg/mL.

compound="COc1c(N2C[C@@H]3CCCN[C@@H]3C2)c(F)cc2c(=O)c(C(=O)O)cn(C3CC3)c12 [Moxifloxacin, reference compound]" recorded_measurement=16
compound="Cc1c(-c2ccc(CN)cc2)ccn2c(=O)c(C(=O)O)cc(C3CC3)c12 [Compound 5]" recorded_measurement=8

Req: Please provide the recorded MIC for Cc1c(-c2ccc(N)cc2)ccn2c(=O)c(C(=O)O)cc(C3CC3)c12 [Compound 8] , tested on A. baumannii A472.
Resp: 4

Req: Proceed to Cc1c(-c2cc(F)c(N)cc2F)ccn2c(=O)c(C(=O)O)cc(C3CC3)c12 [Compound 2]
Resp: 4

Req: Lookup Cc1c(-c2ccc(N)c(F)c2)ccn2c(=O)c(C(=O)O)cc(C3CC3)c12 [Compound 1]
Resp: 8

Req: Entry Cc1c(-c2ccc(N)cc2)c(F)cn2c(=O)c(C(=O)O)cc(C3CC3)c12 [Compound 7] please
Resp: 4

Req: // repeat for Cc1c(-c2cc(Cl)c(N)c(Cl)c2)ccn2c(=O)c(C(=O)O)cc(C3CC3)c12 [Compound 3] and report
Resp: 32

* * *

# MIC listing for each entry below
- Test system: E. coli ATCC 25922
- Assay procedure: MIC, selected panel of Gram-positive and Gram-negative strains (Example 5)
- Type: cell-based, Escherichia coli
- Condition parameters: Escherichia coli, ATCC25922; read-out: MIC E. coli ATCC 25922
The answer is to be given in µg/mL; state only the numeric part.

compound="C[C@H]1c2cccc(O)c2C(=O)C2=C(O)[C@]3(O)C(=O)C(C(N)=O)=C(O)[C@@H](N(C)C)[C@@H]3[C@@H](O)[C@@H]21 [Doxycycline, reference compound]" measure=MIC recorded_measurement=1
compound=Cc1c(-c2cnc(N)nc2)ccn2c(=O)c(C(=O)O)cc(C3CC3)c12 measure=MIC recorded_measurement=1
compound=Cc1c(-c2ccc(C(=O)C(F)(F)F)cc2)ccn2c(=O)c(C(=O)O)cc(C3CC3)c12 measure=MIC recorded_measurement=0.5
compound="Cc1c(-c2ccc3c(c2)NC(=O)C(N)C3)ccn2c(=O)c(C(=O)O)cc(C3CC3)c12 (stereo not drawn)" measure=MIC recorded_measurement=0.25
compound="C[C@H]1COc2c(N3CCN(C)CC3)c(F)cc3c(=O)c(C(=O)O)cn1c23 [Levofloxacin, reference compound]" measure=MIC recorded_measurement=0.016

Next compound, please.
Req: For the compound "Cc1c(-c2ccc(CN)c(F)c2)ccn2c(=O)c(C(=O)O)cc(C3CC3)c12" , what MIC is on record?
Resp: 0.016
